The compounds listed here are annotated with their Conversion in SGF, time.
Test: Conversion of prodrug to parent in in vitro biorelevant gastrointestinal tract media
Assay type: in vitro ADME
Settings: simulated gastric fluid, 37° C., 5 h

INSERT INTO results (smiles_repr, value_reported) VALUES
  ('Cc1cc(Nc2cc(C(F)F)ccn2)nc(-c2ccc([C@](C)(O)[C@H]3CC[C@H](C(=O)Oc4ccc(C#N)cc4)CC3)nc2)c1', '0%, 5 h'),
  ('CCOCCOCCOC(=O)OCOC(=O)[C@H]1CC[C@H]([C@@](C)(O)c2ccc(-c3cc(C)cc(Nc4cc(C(F)F)ccn4)n3)cn2)CC1', '0%, 5 h'),
  ('Cc1cc(Nc2cc(C(F)F)ccn2)nc(-c2ccc([C@](C)(O)[C@H]3CC[C@H](C(=O)OCC4CCNCC4)CC3)nc2)c1', '0%, 5 h'),
  ('Cc1cc(Nc2cc(C(F)F)ccn2)nc(-c2ccc([C@](C)(O)[C@H]3CC[C@H](C(=O)OC[N+]4(C)CCOCC4)CC3)nc2)c1.[I-]', '0%, 5 h'),
  ('Cc1cc(Nc2cc(C(F)F)ccn2)nc(-c2ccc([C@](C)(O)[C@H]3CC[C@H](C(=O)OCOC(=O)C4CCNCC4)CC3)nc2)c1', '0%, 5 h');

// returns reported Conversion in SGF, time for input CNCCCOC(=O)[C@H]1CC[C@H]([C@@](C)(O)c2ccc(-c3cc(C)cc(Nc4cc(C(F)F)ccn4)n3)cn2)CC1 0%, 5 h

# repeat for Cc1cc(Nc2cc(C(F)F)ccn2)nc(-c2ccc([C@](C)(O)[C@H]3CC[C@H](C(=O)OCCOP(=O)(O)O)CC3)nc2)c1 0%, 5 h

# repeat for Cc1cc(Nc2cc(C(F)F)ccn2)nc(-c2ccc([C@](C)(O)[C@H]3CC[C@H](C(=O)OCOP(=O)(O)O)CC3)nc2)c1 5%, 5 h

# repeat for Cc1cc(Nc2cc(C(F)F)ccn2)nc(-c2ccc([C@](C)(O)[C@H]3CC[C@H](C(=O)O[C@H]4CC[C@H](N)CC4)CC3)nc2)c1 0%, 5 h

# repeat for Cc1cc(Nc2cc(C(F)F)ccn2)nc(-c2ccc([C@](C)(O)[C@H]3CC[C@H](C(=O)OCOC(=O)OCCOCCOCCOCCO)CC3)nc2)c1 0%, 5 h

# repeat for Cc1cc(Nc2cc(C(F)F)ccn2)nc(-c2ccc([C@](C)(O)[C@H]3CC[C@H](C(=O)OCOC(=O)OCCCCCCN(C)C)CC3)nc2)c1 0%, 5 h

# repeat for CCOCCOC(=O)OCOC(=O)[C@H]1CC[C@H]([C@@](C)(O)c2ccc(-c3cc(C)cc(Nc4cc(C(F)F)ccn4)n3)cn2)CC1 0%, 5 h

----------
Experiment: Solubility in biorelevant fasted state simulated intestinal fluid (FaSSIF)
Type: physicochemical
Conditions: kinetic from dmso stock; FaSSIF, equilibrated overnight at 25° C., maximum solubility approximately 200 μM; read-out: Solubility
assay_metric: solubility (µM)
Write the value in µM as a bare number.

// returns reported solubility for input Cc1cc(Nc2cc(C(F)F)ccn2)nc(-c2ccc([C@](C)(O)[C@H]3CC[C@H](C(=O)OCCC(C)(C)O)CC3)nc2)c1 76

----------
Biological target: recombinant human GST-Syk (Homo sapiens)
Construct: purchased Carna Biosciences 08-176
Assay: Homogeneous Time-Resolved Fluorescence (HTRF) assay for the recombinant human Syk enzyme
Type: biochemical
Details: recombinant human GST-Syk 5 pM, ATP 25 μM, read-out: IC50
assay_metric: IC50 (nM)
Write the value in nM as a bare number.

Before answering, review these 5 worked examples.
INSERT INTO results (molecule, assay_metric, value_reported) VALUES
  ('Cc1cc(Nc2cc(C(F)F)ccn2)nc(-c2ccc([C@](C)(O)[C@H]3CC[C@H](C(=O)Oc4ccccc4)CC3)nc2)c1', 'IC50', 9.7),
  ('Cc1cc(Nc2cc(C(F)F)ccn2)nc(-c2ccc([C@](C)(O)[C@H]3CC[C@H](C(=O)OCCC[S+](C)[O-])CC3)nc2)c1 (stereo partly drawn)', 'IC50', 4.3),
  ('Cc1cc(Nc2cc(C(F)F)ccn2)nc(-c2ccc([C@](C)(O)[C@H]3CC[C@H](C(=O)OC[N+](C)(C)CCOCCN(C)C)CC3)nc2)c1', 'IC50', 1.1),
  ('CCOCC(COCC)OC(=O)OCOC(=O)[C@H]1CC[C@H]([C@@](C)(O)c2ccc(-c3cc(C)cc(Nc4cc(C(F)F)ccn4)n3)cn2)CC1', 'IC50', 22.8),
  ('CCOCCOCCOC(=O)OCOC(=O)[C@H]1CC[C@H]([C@@](C)(O)c2ccc(-c3cc(C)cc(Nc4cc(C(F)F)ccn4)n3)cn2)CC1', 'IC50', 174);

For the next question, use this molecule.
// returns reported IC50 for input Cc1cc(Nc2cc(C(F)F)ccn2)nc(-c2ccc([C@](C)(O)[C@H]3CC[C@H](C(=O)O[C@H]4CC[C@@H](N)CC4)CC3)nc2)c1 4.2
